Molecular target: Bcl-xL/Bcl-2-like protein 11 (Homo sapiens)
Sequence (O43521 whole entry, one chain of several, further chain): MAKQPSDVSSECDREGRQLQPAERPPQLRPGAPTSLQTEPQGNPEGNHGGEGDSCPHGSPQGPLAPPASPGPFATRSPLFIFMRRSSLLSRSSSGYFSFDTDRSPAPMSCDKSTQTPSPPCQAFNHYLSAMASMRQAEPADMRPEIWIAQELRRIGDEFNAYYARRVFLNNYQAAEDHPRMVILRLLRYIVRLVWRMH
Assay: Binding affinity to GST-tagged Bcl-xL/5-FAM-tagged Bim (unknown origin) assessed as inhibition constant by fluorescence polarization assay
Format: protein assay
endpoint: Ki (µM)
Express the result in µM but write the number alone.

Ask: Return Ki measured with Bcl-xL/Bcl-2-like protein 11 (Homo sapiens) given this compound: O=C(Nc1ccccc1)C1=CN=c2s/c(=C\c3cn(Cc4ccccc4F)c4ccccc34)c(=O)n2C1c1ccc(F)cc1 (stereo unspecified)
Reply: 1.64

* * *

Target: BCL2/BID (Homo sapiens, UniProt P10415)
Sequence (P10415 whole entry, one chain of several): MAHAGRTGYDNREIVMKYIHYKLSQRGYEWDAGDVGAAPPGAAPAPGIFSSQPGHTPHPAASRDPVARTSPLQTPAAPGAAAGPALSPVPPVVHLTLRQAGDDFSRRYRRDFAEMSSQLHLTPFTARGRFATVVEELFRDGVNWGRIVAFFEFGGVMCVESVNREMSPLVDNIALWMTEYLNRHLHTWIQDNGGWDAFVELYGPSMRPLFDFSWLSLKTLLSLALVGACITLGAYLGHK
Test: Binding affinity to Bcl-2 /Bid (unknown origin) assessed as inhibition constant by fluorescence polarization assay
Assay type: protein assay
Catalogue of compounds with associated pKi
Keep it numeric: pKi is minus log10 of the concentration in mol/L.

Below are worked cases with known answers.
O=C(Nc1ccccc1)C1=CN=c2s/c(=C\c3cn(Cc4ccccc4)c4ccccc34)c(=O)n2[C@@H]1c1ccccc1 | 5.96
COC(=O)C1=CN=c2s/c(=C\c3cn(Cc4ccccc4)c4ccccc34)c(=O)n2[C@@H]1c1ccc(C(C)=O)cc1 | 6.00

Ask: Entry CCOC(=O)C1=CN=c2s/c(=C\c3cn(Cc4ccccc4)c4ccccc34)c(=O)n2[C@H]1c1cccc(C(C)=O)c1 : reported pKi = ?
Reply: 6.23

Ask: Look at this compound and give its reported pKi. COC(=O)C1=CN=c2s/c(=C\c3cn(Cc4ccccc4)c4ccccc34)c(=O)n2[C@H]1c1ccc(C(C)=O)cc1
Reply: 6.03

Ask: Quick one: pKi for N#CC1=C(C#N)c2ccc(N3CCSCC3)c3cccc(c23)C1=O ?
Reply: 6.51

Ask: Name the reported pKi value associated with the compound CCOC(=O)C1=CN=c2s/c(=C\c3cn(Cc4ccccc4)c4ccccc34)c(=O)n2[C@@H]1c1cccc(C(C)=O)c1
Reply: 6.27

Ask: Given O=C(Nc1ccccc1)C1=CN=c2s/c(=C\c3cn(Cc4ccccc4)c4ccccc34)c(=O)n2[C@H]1c1ccccc1 , state its recorded pKi.
Reply: 6.09

* * *

Target: Bcl-xL/BAK (Homo sapiens)
Sequence (Q07817 whole entry): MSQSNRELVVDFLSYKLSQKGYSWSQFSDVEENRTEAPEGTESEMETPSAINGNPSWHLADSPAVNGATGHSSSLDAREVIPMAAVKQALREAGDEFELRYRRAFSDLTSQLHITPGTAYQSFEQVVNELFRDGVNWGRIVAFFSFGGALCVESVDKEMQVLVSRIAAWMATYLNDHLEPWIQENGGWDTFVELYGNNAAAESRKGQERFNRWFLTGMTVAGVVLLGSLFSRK
Sequence (Q16611 whole entry, further chain): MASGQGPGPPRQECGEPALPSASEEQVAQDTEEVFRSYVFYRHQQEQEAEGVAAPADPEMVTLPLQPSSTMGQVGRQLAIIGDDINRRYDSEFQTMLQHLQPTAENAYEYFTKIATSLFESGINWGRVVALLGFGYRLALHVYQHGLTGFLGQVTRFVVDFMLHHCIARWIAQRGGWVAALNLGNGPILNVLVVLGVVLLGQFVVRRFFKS
Assay: Inhibition of Bcl-xL/Bak (unknown origin)
Format: protein assay
endpoint: IC50 (nM)
Your answer is read as nM, so omit the unit and give the number.

Ask: For the molecule Cc1cc2c(O)c(-c3ccc4c(C(=O)NCC(C)c5ccccc5)c(O)c(O)cc4c3O)c(C)cc2c(C(=O)NCC(C)c2ccccc2)c1C (stereo unspecified) , what IC50 is on record?
Reply: 310

* * *

Target: BCL2A1/BID (Homo sapiens, UniProt Q16548)
Sequence (Q16548 whole entry): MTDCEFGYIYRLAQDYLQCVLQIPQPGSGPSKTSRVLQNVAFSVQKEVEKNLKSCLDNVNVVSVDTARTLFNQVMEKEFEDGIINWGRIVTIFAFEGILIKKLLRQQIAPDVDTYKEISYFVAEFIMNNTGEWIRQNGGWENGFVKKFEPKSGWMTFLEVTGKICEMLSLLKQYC
Sequence (P55957 whole entry): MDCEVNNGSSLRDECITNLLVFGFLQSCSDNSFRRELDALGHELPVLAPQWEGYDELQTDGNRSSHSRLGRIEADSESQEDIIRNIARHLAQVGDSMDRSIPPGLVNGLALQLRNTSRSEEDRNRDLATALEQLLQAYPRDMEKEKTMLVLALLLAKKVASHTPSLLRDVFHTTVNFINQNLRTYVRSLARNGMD
endpoint: pIC50
pIC50 here: minus log base 10 of the concentration, concentration in moles per litre.

Ask: Name the reported pIC50 value associated with the compound O=C(O[C@@H]1Cc2c(O)cc(O)cc2O[C@@H]1c1cc(O)c(O)c(O)c1)c1cc(O)c(O)c(O)c1 [EPIGALOCATECHIN GALLATE]
Reply: 5.75
